Provenance of the data: PubChem BioAssay AID848

- Experiment description: HUVEC nuclei count loss under TNFa – imaging, Hoechst nuclei count, cytotoxicity control for VCAM1 expression modulator project, primary screen (AID 848);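 further: cells counted after 24 h of TNF alpha exposure following the 1 h pretreatment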
- Details: HUVEC TNFalpha-stimulated, at 2 µM, stronger effect = higher value
Hit rate of the full screen: of about 93,000 compounds, about 160 (0.17%) were called active. Many of the other results were omitted from the sample, so actives are more common in it than they were.
Parameter: cell count reduction. Scope: all listed entries.
Answer with a number only, understood to be in %.

Use the examples below as a reference point.
- Molecule: "CC(=O)Nc1ccc(S(=O)(=O)NCCc2ccccc2)cc1"
  Unit: "%"
  cell count reduction: 27.8
- Molecule: "COCc1nc2ccccc2n1Cc1ccccc1Br"
  Unit: "%"
  cell count reduction: 91
- Molecule: "O=C(Nc1ncc2c(n1)-c1ccccc1OC2)c1ccc(Cl)cc1"
  Unit: "%"
  cell count reduction: -3.3
- Molecule: "CCOc1cccc(SCc2noc(C(=O)NC(C)C)c2C(=O)O)c1"
  Unit: "%"
  cell count reduction: -41.1
- Molecule: "COC(=O)c1cccc(N(C(=O)c2ccco2)C(C(=O)NC2CCCC2)c2ccco2)c1 (stereo unspecified)"
  Unit: "%"
  cell count reduction: 1.3

Using known records, supply cell count reduction for CC(C)c1ccc(/C=C/C(=O)NNC(=O)c2cccnc2)cc1
-4.2

----------
- Experiment description: HUVEC nuclei count loss under TNFa – imaging, Hoechst nuclei count, cytotoxicity control for VCAM1 expression modulator project, primary screen (AID 848);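 further: cells counted after 24 h of TNF alpha exposure following the 1 h pretreatment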
- Details: HUVEC TNFalpha-stimulated, at 2 µM, stronger effect = higher value
In all, about 93,000 compounds went through this assay and about 160 (0.17%) were called active. The full list was thinned out, with actives kept by preference.
Value type: cell count reduction (%)
Lab book: enter the figure in %, no units written.

- Compound: "CC(C)(CCl)C(=O)Nc1ccc(Sc2ccc(F)cc2)cc1"
  Unit: "%"
  cell count reduction: -6.3
- Compound: "Cc1cccc(N(C(=O)c2ccc(CN3CCOCC3)o2)C(C(=O)NC2CCCCC2)c2ccc(F)cc2)c1 (stereo not given)"
  Unit: "%"
  cell count reduction: -36.1
- Compound: "CCOC(=O)c1sc(NC(=O)c2ccncc2)nc1C"
  Unit: "%"
  cell count reduction: 3.6
- Compound: "Cc1cccc(NC(=O)Cn2cc(C(=O)c3ccco3)c3ccccc32)c1"
  Unit: "%"
  cell count reduction: 7.3
- Compound: "Cc1cc(-c2cccs2)nc(-n2cccc2)n1"
  Unit: "%"
  cell count reduction: 3.7

Answer with the recorded cell count reduction for the compound listed here: O=C(NCc1cccnc1)c1cccnc1Sc1ccc(Cl)cc1
-20.6

Could you please provide reported cell count reduction for c1ccc(CSc2ncnc3c2sc2nc(N4CCOCC4)c4c(c23)CCCC4)cc1 ? Thanks!
-21.4

Report cell count reduction for NC(=O)C1(N2CCCCC2)CCN(C(=S)Nc2ccc(Cl)cc2)CC1
5.1

Read off the recorded cell count reduction for Cc1cccc(CCNS(=O)(=O)c2ccc(S(=O)(=O)NC3CCCC3)cc2)c1
-9.6

Note cell count reduction for the compound shown: CCCOc1ccc(C2NC(=O)NC(c3ccccc3)=C2C(C)=O)cc1OCC (stereo not given)
-12.4

----------
Listing of entries alongside the reported cell count reduction.
- Experiment description: HUVEC nuclei count loss under TNFa – imaging, Hoechst nuclei count, cytotoxicity control for VCAM1 expression modulator project, primary screen (AID 848);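 further: cells counted after 24 h of TNF alpha exposure following the 1 h pretreatment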
- Details: HUVEC TNFalpha-stimulated, at 2 µM, stronger effect = higher value
Hit rate of the full screen: of about 93,000 compounds, about 160 (0.17%) were called active. The sample as a whole holds a higher share of actives than the screen did.
Please give a number only; it is taken to be in %.

Look over these answered cases.
- Molecule: "Cc1ccc(-n2c(CNc3ccc(F)cc3)nnc2SCC(=O)N2CCOCC2)cc1"
  Unit: "%"
  Quantitative result: -20.7
- Molecule: "COc1cccc(NC(=O)Cc2ccc(C)cc2)c1"
  Unit: "%"
  Quantitative result: -6.5
- Molecule: "Cc1c(NC(=O)/C=C/C(=O)O)cccc1[N+](=O)[O-]"
  Unit: "%"
  Quantitative result: -2.4

Dear colleague, please send me the reported cell count reduction for COc1ccc(/C=N/Nc2nc3ccccc3c(=O)[nH]2)cc1 when you can.
18.9
